half-life at 1 μM by entry:
Test: HLM stability (High Activity)
Type: in vitro ADME
Conditions: both sexes, human, liver microsomes, pH 7.4, Condition 2 (High Activity), 1.0 mg protein/mL
ASSAY ENDPOINT: half-life at 1 μM (h)

> print(dat)
                                   molecule  endpoint.result
1       COCCNC1(c2ccccc2)CCCCC1=O (racemic)             2.33
2     CCNC1(c2cccc(OC)c2)CCCCC1=O (racemic)             3.32
3         NC1(c2ccccc2Cl)CCCCC1=O (racemic)             3.03
4  CN[C@]1(c2ccccc2C)CCCCC1=O [Compound 38S]             1.82
5  N[C@]1(c2ccccc2)CCCCC1=O [Compound 11S, (S)-2-amino-2-phenyl-cyclohexan-1-one]             3.25
6           NC1(c2ccccc2)CCCCC1=O (racemic)              8.9
7     O=C1CCCCC1(c1ccccc1)N1CCCC1 (racemic)             3.87
8        CNC1(c2ccccc2OC)CCCCC1=O (racemic)             13.7
